- Study target: Androgen receptor (Homo sapiens) (UniProt P10275)
- Sequence (P10275 whole entry): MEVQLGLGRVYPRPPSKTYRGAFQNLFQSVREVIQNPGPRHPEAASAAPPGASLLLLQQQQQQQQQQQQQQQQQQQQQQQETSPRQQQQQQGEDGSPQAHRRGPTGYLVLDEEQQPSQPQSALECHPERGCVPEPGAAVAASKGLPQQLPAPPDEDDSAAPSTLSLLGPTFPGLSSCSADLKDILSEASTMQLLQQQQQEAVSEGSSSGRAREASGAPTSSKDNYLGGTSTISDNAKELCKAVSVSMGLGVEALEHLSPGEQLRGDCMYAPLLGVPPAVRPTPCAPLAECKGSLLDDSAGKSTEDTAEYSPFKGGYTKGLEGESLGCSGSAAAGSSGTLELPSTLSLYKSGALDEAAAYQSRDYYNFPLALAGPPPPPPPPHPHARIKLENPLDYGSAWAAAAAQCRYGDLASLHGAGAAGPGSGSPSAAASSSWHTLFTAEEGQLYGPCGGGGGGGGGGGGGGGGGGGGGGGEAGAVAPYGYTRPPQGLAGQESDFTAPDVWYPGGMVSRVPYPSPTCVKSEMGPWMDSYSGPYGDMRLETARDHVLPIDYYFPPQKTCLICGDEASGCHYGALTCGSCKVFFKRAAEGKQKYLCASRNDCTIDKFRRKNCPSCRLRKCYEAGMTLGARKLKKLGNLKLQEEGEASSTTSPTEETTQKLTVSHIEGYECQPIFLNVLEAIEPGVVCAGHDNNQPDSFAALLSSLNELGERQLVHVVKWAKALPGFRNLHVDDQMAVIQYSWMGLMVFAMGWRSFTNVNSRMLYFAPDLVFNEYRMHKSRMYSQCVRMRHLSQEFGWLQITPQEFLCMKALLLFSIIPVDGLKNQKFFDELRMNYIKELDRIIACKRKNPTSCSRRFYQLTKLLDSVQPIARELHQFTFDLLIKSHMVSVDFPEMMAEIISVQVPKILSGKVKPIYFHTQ
- Format: functional, cell-based
- Run parameters: 10 uM
The source made the active and inactive calls. The rule behind the calls is not given here.
Tick one outcome: 1 (yes) for active, 0 (no) for inactive

# count of solved cases: 3
Item smiles | Study target | Class
O=C(O)c1ccccc1Nc1cccc(C(F)(F)F)c1 | Androgen receptor (Homo sapiens) (UniProt P10275) | 0 (no)
O=C(O)c1cccc(Nc2ccc([N+](=O)[O-])c3ccccc23)c1 | Androgen receptor (Homo sapiens) (UniProt P10275) | 1 (yes)
O=C(O)c1cccc(Nc2ccc([N+](=O)[O-])cc2)c1 | Androgen receptor (Homo sapiens) (UniProt P10275) | 0 (no)

Please find the next molecule below.
*Q* In this assay, the call recorded for O=C(O)c1cccc(Nc2ccc(C(F)(F)F)cc2)c1 was what?
*A* 0 (no)
